target-or-test-system: Epidermal growth factor receptor (Homo sapiens)
test-name: compounds binding epidermal growth factor receptor – biochemical, small-molecule microarray, 635 nm fluorescence, primary screen (AID 1104);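 also: score merges 667 nm emission intensity with spot signal to noise over triplicate slides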
conditions: EGFR binding, higher = more signal

[
  {
    "compound": "Cc1cc(C)c(C(O)C2C=CC3C(=O)N(c4ccccc4)C(=O)C3N2Nc2ccccc2)c(C)c1 (stereo unspecified)",
    "composite z-score": 0.403
  },
  {
    "compound": "Cc1cc(C)c(C(O)C2C=CC3C(=O)N(c4ccccc4)C(=O)C3N2Nc2ccc([N+](=O)[O-])cc2)c(C)c1 (stereo unspecified)",
    "composite z-score": 0.326
  },
  {
    "compound": "O=C1O[C@@H](c2ccccc2)[C@@H](c2ccccc2)N2[C@@H](c3ccc(O)cc3)[C@]3(C(=O)Nc4ccc(C#CC5(O)CCCCCC5)cc43)[C@@H](C(=O)N3CCN(c4ncccn4)CC3)[C@H]12",
    "composite z-score": -0.0042
  },
  {
    "compound": "O=C1O[C@@H](c2ccccc2)[C@@H](c2ccccc2)N2[C@@H](c3ccc(O)cc3)[C@]3(C(=O)Nc4ccc(C#CC5=CCCCC5)cc43)[C@@H](C(=O)Nc3nc4ccccc4s3)[C@H]12",
    "composite z-score": 0.381
  },
  {
    "compound": "[N-]=[N+]=NCc1ccccc1C[C@@]1(C(=O)NCCN2CCOCC2)N=C(c2ccc(OCCCO)cc2)O[C@@H]1c1ccccc1CN=[N+]=[N-]",
    "composite z-score": 0.244
  },
  {
    "compound": "Cc1ccccc1C(O)C1C=CC2C(=O)N(Cc3ccccc3)C(=O)C2N1n1cnnc1 (stereo unspecified)",
    "composite z-score": -0.126
  }
]

----------
Collected composite z-score values appear next to each entry.
Test system: Neuregulin-1 EGF-like domain
test-name: small molecules binding NRG1 EGF domain – biochemical, small-molecule microarray, 635 nm fluorescence, primary screen (AID 1081);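 also: binding of the protein to compounds printed on small-molecule microarray slides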
conditions: higher = more signal
parameter-measured: composite z-score

[
  {
    "record-smiles": "Cc1ccc(N2C(=O)c3ccccc3[C@](C)(C(=O)NC(C)C)[C@@H]2c2ccc(CO)cc2)nc1",
    "test-value": 0.787
  },
  {
    "record-smiles": "C#CCNS(=O)(=O)N(C)C",
    "test-value": 0.774
  },
  {
    "record-smiles": "COCCCNC(=O)[C@@]1(Cc2ccccc2N=[N+]=[N-])N=C(c2ccc(OCCCO)cc2)O[C@H]1c1ccccc1CN=[N+]=[N-]",
    "test-value": 1.26
  },
  {
    "record-smiles": "COC(=O)[C@@]1(Cc2ccc(F)cc2)[C@H]2c3cc(C(=O)N(C)C)n(Cc4ccc(C)c(F)c4F)c3C[C@H]2CN1C(=O)c1ccccc1",
    "test-value": 1.36
  }
]

----------
target-or-test-system: Calmodulin-1 (Homo sapiens) (UniProt P0DP23)
test-name: small molecules binding calmodulin-1 with EGTA – biochemical, small-molecule microarray, Cy5-labelled CALM1, profiling panel (AID 1111);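 also: labelled calmodulin applied in Tris saline Tween buffer holding calcium plus EGTA and DTT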
conditions: Cy5-CALM1 binding fluorescence, higher = more signal

[
  {
    "compound": "O=C(N1CCOCC1)[C@@]1(CCS(=O)(=O)c2ccccc2)COC(c2ccc(OCCCO)cc2)=N1",
    "composite z-score": 1.25
  },
  {
    "compound": "CN1C(=O)C2C=CC(C(O)COCc3ccccc3)N(Nc3ccccc3)C2C1=O (stereo not drawn)",
    "composite z-score": -0.0981
  },
  {
    "compound": "CCCCC(=C=CC[C@H](O)c1ccccc1OCCO)C[C@H](O)c1ccccn1",
    "composite z-score": -0.0455
  },
  {
    "compound": "CCCCC(=C=CC[C@H](O)c1cccc(OCCO)c1)C[C@H](O)COCc1ccccc1",
    "composite z-score": -0.59
  },
  {
    "compound": "CC1C=C(CCCO)C=C(C(=O)OCCS(C)(=O)=O)C(C(=O)OCCS(C)(=O)=O)=CN1Cc1cccc(OC(F)(F)F)c1 (stereo not drawn)",
    "composite z-score": 1.7
  },
  {
    "compound": "COCC(=C=CC[C@@H](O)c1ccccc1OCCO)C[C@@H](O)COCc1ccccc1",
    "composite z-score": 1.16
  },
  {
    "compound": "COc1cc(C(O)C2C=CC3C(=O)NC(=O)C3N2Nc2ccc(Cl)cc2Cl)cc(OC)c1OC (stereo not drawn)",
    "composite z-score": 2.03
  },
  {
    "compound": "CN(C)CCCCNC(=O)[C@H]1C[C@H]2C(=O)N[C@@H](CCCC[N+](C)(C)C)C(=O)N2[C@H]1c1cccc(OCCO)c1",
    "composite z-score": 0.285
  },
  {
    "compound": "CO[C@H]1O[C@H](CO)[C@@H](OC(=O)c2ccc(Br)cc2)[C@@H]2OC(=O)[C@H](Cc3cccc(Br)c3)C/C=C/C[C@@H](Cc3cccc(Br)c3)C(=O)O[C@@H]12",
    "composite z-score": 0.622
  },
  {
    "compound": "Cc1cc(C)c(C(O)C2C=CC3C(=O)N(c4ccccc4)C(=O)C3N2Nc2ccc([N+](=O)[O-])cc2)c(C)c1 (stereo not drawn)",
    "composite z-score": 1.84
  },
  {
    "compound": "C[C@@H]1ON(c2ccccc2)[C@H](c2ccccc2)[C@H]1C(=O)N1C(=O)OC[C@H]1Cc1ccccc1",
    "composite z-score": -0.137
  },
  {
    "compound": "C=C(/C(=C/C[C@@H](OC(=O)c1ccncc1)c1cccc(OCCO)c1)c1cc(C(=O)OC)ccc1OC)C(C)C",
    "composite z-score": 0.0576
  },
  {
    "compound": "CC(C)CN1C(=O)[C@@]2(Cc3ccccc31)c1ccccc1C(=O)N(Cc1ccccc1)[C@H]2c1ccc(CO)cc1",
    "composite z-score": -0.361
  },
  {
    "compound": "CCCCC(O)C1C=CC2C(=O)N(Cc3ccccc3)C(=O)C2N1n1cnnc1 (stereo not drawn)",
    "composite z-score": 0.0285
  },
  {
    "compound": "[N-]=[N+]=NCc1ccccc1[C@H]1OC(c2ccc(OCCCO)cc2)=N[C@@]1(Cc1ccccc1)C(N)=O",
    "composite z-score": 0.931
  },
  {
    "compound": "O=C1O[C@H](c2ccccc2)[C@H](c2ccccc2)N2[C@H]1[C@@H](C(=O)N1CCN(c3ncccn3)CC1)[C@]1(C(=O)Nc3ccc(C#CCCO)cc31)[C@H]2c1ccc(OCCO)cc1",
    "composite z-score": 1.23
  },
  {
    "compound": "CO[C@H]1O[C@H](CO)[C@@H](OC(=O)Nc2ccc(C(F)(F)F)cc2)[C@H](OC(=O)Nc2ccccc2)[C@H]1OC(=O)Nc1ccccc1",
    "composite z-score": 1.99
  },
  {
    "compound": "C=CC[C@@]1(C(=O)NCCN2CCOCC2)N=C(c2ccc(OCCCO)cc2)O[C@@H]1c1ccccc1",
    "composite z-score": -0.0984
  }
]
